Where do the numbers come from? From patent US20200347137A1.

Molecular target: T1, PD-L1 recombinant protein (human, UniProt Q9NZQ7 19-238, limits assumed)
T1 construct: also called PD-L1 antigen
T1 sequence (Q9NZQ7 19-238 limits assumed): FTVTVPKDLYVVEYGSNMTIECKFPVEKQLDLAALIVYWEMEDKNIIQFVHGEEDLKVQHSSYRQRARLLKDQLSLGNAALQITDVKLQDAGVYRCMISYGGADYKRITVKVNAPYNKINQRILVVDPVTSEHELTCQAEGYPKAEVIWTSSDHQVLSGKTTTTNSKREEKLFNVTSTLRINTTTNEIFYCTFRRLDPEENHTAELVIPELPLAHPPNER
Experiment: ForteBio Octet RED96, PD-L1 immobilised, antibody in solution
PROPERTY_NAME: kon (M⁻¹ s⁻¹)
# value in M⁻¹ s⁻¹; strip the unit string

PL221G5 mAb (antibody, V domains shown, Anti-PD-L1 clone tested in mAb format) VH: EVQLLESGGGLVQPGGSLRLSCAASGFSFSSGYDMCWVRQAPGKGLEWIACIAAGSAGITYDANWAKGRFTISRDNSKNTLYLQMNSLRAEDTAVYYCARSAFSFDYAMDLWGQGTLVTVSS VL: DIQMTQSPSTLSASVGDRVTITCQASQSISSHLNWYQQKPGKAPKLLIYKASTLASGVPSRFSGSGSGTEFTLTISSLQPDDFATYYCQQGYSWGNVDNVFGGGTKVEIK: 572000

Turning now to a further record.
Query: Check the records and state kon for PL230C6 mAb (antibody, V domains shown, also called PL23006) VH: QSVEESGGGLVQPGGSLRLSCTASGIDLNTYDMIWVRQAPGKGLEWVGIITYSGSRYYANWAKGRFTISKDNTKNTVYLQMNSLRAEDTAVYYCARDYMSGSHLWGQGTLVTVSS VL: AYDMTQSPSSVSASVGDRVTIKCQASEDIYSFLAWYQQKPGKAPKLLIHSASSLASGVPSRFSGSGSGTDFTLTISSLQPEDFATYYCQQGYGKNNVDNAFGGGTKVEIK
Result: 609000
